assay.details: Autosampler stability of ready for injection samples
Assay type: physicochemical, human
conditions: validation standard MOV
assay.readout: Autosampler (72h, 4°C) Accuracy [%] (%)
Record the value in %, omitting the unit from your answer.

I am curious: what Autosampler (72h, 4°C) Accuracy [%] value has been reported for `COc1cc(N2CCC(N3CCN(C)CC3)CC2)ccc1Nc1ncc(Cl)c(Nc2ccccc2P(C)(C)=O)n1` ?
95.5

Request the reported Autosampler (72h, 4°C) Accuracy [%] associated with `CNC(=O)c1ccccc1Sc1ccc2c(/C=C/c3ccccn3)n[nH]c2c1`
100.0

Param item = `C=CC(=O)N1CCC[C@@H](n2nc(-c3ccc(Oc4ccccc4)cc3)c3c(N)ncnc32)C1` ; retrieve measured Autosampler (72h, 4°C) Accuracy [%].
103.7

Param item = `Cc1cc(Nc2ncc(Cl)c(Nc3ccccc3S(=O)(=O)C(C)C)n2)c(OC(C)C)cc1C1CCNCC1` ; retrieve measured Autosampler (72h, 4°C) Accuracy [%].
103.5

Please report the recorded Autosampler (72h, 4°C) Accuracy [%] for `COC(=O)N[C@@H](C)CNc1nccc(-c2cn(C(C)C)nc2-c2cc(Cl)cc(NS(C)(=O)=O)c2F)n1` .
110.5

So what's the measured Autosampler (72h, 4°C) Accuracy [%] for this one? `CCOc1cc2ncc(C#N)c(Nc3ccc(OCc4ccccn4)c(Cl)c3)c2cc1NC(=O)/C=C/CN(C)C`
100.5

Report Autosampler (72h, 4°C) Accuracy [%] for `Cc1ccc(NC(=O)c2ccc(CN3CCN(C)CC3)cc2)cc1Nc1nccc(-c2cccnc2)n1` please.
101.7

Item `O=C(Nc1cnn2ccc(N3CCC[C@@H]3c3cc(F)ccc3F)nc12)N1CC[C@H](O)C1` has what recorded Autosampler (72h, 4°C) Accuracy [%]?
101.2

###

Could you please report measured Autosampler (72h, 4°C) Accuracy [%] for the items listed next?
assay.details: Autosampler stability of ready for injection samples
Type: physicochemical, human
conditions: validation standard LLOV
Output spec: scalar in %, unitless text.

Report Autosampler (72h, 4°C) Accuracy [%] for `COc1cc(N2CCC(N3CCN(C)CC3)CC2)ccc1Nc1ncc(Cl)c(Nc2ccccc2P(C)(C)=O)n1` please.
85.3

Which measured Autosampler (72h, 4°C) Accuracy [%] value corresponds to `CS(=O)(=O)c1ccc(C(=O)Nc2ccc(Cl)c(-c3ccccn3)c2)c(Cl)c1` ?
85.6

# Autosampler (72h, 4°C) Accuracy [%] lookup, item `COc1cc2nccc(Oc3ccc(NC(=O)Nc4cc(C)on4)c(Cl)c3)c2cc1OC`
95.0

State the recorded Autosampler (72h, 4°C) Accuracy [%] for this entry: `CC(=O)c1c(C)c2cnc(Nc3ccc(N4CCNCC4)cn3)nc2n(C2CCCC2)c1=O`
97.9

Using the record for `O=C(Nc1cnn2ccc(N3CCC[C@@H]3c3cc(F)ccc3F)nc12)N1CC[C@H](O)C1` , report its Autosampler (72h, 4°C) Accuracy [%].
75.5

// lookup Autosampler (72h, 4°C) Accuracy [%] for `CCCS(=O)(=O)Nc1ccc(F)c(C(=O)c2c[nH]c3ncc(-c4ccc(Cl)cc4)cc23)c1F`
109.4

May I ask what Autosampler (72h, 4°C) Accuracy [%] has been recorded for `Cc1nc(Nc2ncc(C(=O)Nc3c(C)cccc3Cl)s2)cc(N2CCN(CCO)CC2)n1` ?
114.9
